B1: LINE1-mini (parent)
chain: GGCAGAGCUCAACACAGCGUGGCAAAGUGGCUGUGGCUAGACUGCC

- Variants of: B1
- Method Notes: self-cleavage, relative activity (ratio to wild type); higher = more cleavage; in vitro, sequencing; the parent is a self-cleaving ribozyme
Assay Readout: self-cleavage
// no unit string in output, number only

Task item: Provide only the value of recorded self-cleavage for C15A U34G
Reply: 0.05

Task item: Provide only the value of recorded self-cleavage for U9A A14C
Reply: 0.04

Task item: Provide only the value of recorded self-cleavage for A11G G35A
Reply: 0.05

Task item: Provide only the value of recorded self-cleavage for G19U G27A
Reply: 0.54

Task item: Provide only the value of recorded self-cleavage for A14G G30U
Reply: 0.34

Task item: Provide only the value of recorded self-cleavage for A12C A16C
Reply: 0.03

Task item: Provide only the value of recorded self-cleavage for C18U A41G
Reply: 0.26

Task item: Provide only the value of recorded self-cleavage for C10G A11U
Reply: 0.04
